Sourced from paper PMC8619914

Tested on: CRAB C4
Test: microbe, parasite or virus in culture
Details: MH media, 2 × 10^5 CFU·mL^−1, 37 °C, 16 h, absorbance 600 nm
Where no end group is shown, it is not given here.
Measured Minimum Inhibitory Concentration, CRAB C4 of individual entries
Quick reminder: number only, in µg/mL, skip the unit.

Would you please look over these solved cases?
>>> print(df.to_string())
                          substance  targetsystem  testvalue
0  RWKIFKKIPKFLHSWKKW-NH2 [PapMA-6]       CRAB C4         16
1  RWKIFKKIPKFLHSAKKW-NH2 [PapMA-3]       CRAB C4         32
2  RWKIFKKIPKFLHSWKKF-NH2 [PapMA-5]       CRAB C4         32
3    RWKIFKKIPKFLHSAKKF-NH2 [PapMA]       CRAB C4         64

Short answer please: Minimum Inhibitory Concentration, CRAB C4, CRAB C4, entry RWKIFKKIPKFLHSFKKF-NH2 [PapMA-4]
16

---

Measured Minimum Inhibitory Concentration, CRAB C3 of individual entries
Tested on: CRAB C3
Assay: microbe, parasite or virus in culture
Details: MH media, 2 × 10^5 CFU·mL^−1, 37 °C, 16 h, absorbance 600 nm
Where no end group is shown, it is not given here.
Quick reminder: number only, in µg/mL, skip the unit.

What does the record list as Minimum Inhibitory Concentration, CRAB C3 for RWKIFKKIPKFLHSAKKA-NH2 [PapMA-2] ?
64

---

Tested on: CRAB C3
Assay: microbe, parasite or virus in culture
Details: MH media, 2 × 10^5 CFU·mL^−1, 37 °C, 16 h, absorbance 600 nm
Where no end group is shown, it is not given here.
quantityKind: Minimum Inhibitory Concentration, CRAB C3 (µg/mL)
Quick reminder: number only, in µg/mL, skip the unit.

>>> print(df.to_string())
                          substance  testvalue
0    RWKIFKKIPKFLHSAKKF-NH2 [PapMA]         16
1  RWKIFKKIPKFLHSWKKF-NH2 [PapMA-5]         16
2  RWKIFKKIPKFLHSFKKF-NH2 [PapMA-4]          8
3  RWKIFKKIPKFLHSWKKW-NH2 [PapMA-6]          8

Short answer please: Minimum Inhibitory Concentration, CRAB C3, CRAB C3, entry RWKIFKKIPKFLHSAKKW-NH2 [PapMA-3]
16
